- measurement-target: Factor X (FX), P00742
- Sequence (P00742 whole entry, looked up): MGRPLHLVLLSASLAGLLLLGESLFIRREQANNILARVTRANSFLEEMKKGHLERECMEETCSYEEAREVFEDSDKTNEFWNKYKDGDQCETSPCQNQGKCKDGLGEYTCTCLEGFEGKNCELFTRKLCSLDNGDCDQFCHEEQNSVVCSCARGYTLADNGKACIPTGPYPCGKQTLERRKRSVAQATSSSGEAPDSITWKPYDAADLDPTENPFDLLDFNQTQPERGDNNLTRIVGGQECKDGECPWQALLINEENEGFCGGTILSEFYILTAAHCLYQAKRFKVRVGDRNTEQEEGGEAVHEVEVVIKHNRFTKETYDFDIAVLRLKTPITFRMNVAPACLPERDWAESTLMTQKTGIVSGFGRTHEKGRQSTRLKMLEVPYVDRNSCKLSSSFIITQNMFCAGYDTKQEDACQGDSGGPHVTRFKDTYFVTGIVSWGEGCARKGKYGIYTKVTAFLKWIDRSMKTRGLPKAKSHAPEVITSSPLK
outcome-measure: kcat of FX activation by FIXa (Xase complex with FVIIIa, PC/PS vesicles, Ca2+)

[
  {
    "protein": "FIXa-R318Y/R338E/T343R/N346D/R403E/E410N (protein) chain 1: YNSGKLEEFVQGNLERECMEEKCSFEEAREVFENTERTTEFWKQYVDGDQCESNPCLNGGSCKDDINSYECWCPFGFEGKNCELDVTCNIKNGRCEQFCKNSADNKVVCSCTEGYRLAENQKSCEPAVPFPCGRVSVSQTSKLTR chain 2: VVGGEDAKPGQFPWQVVLNGKVDAFCGGSIVNEKWIVTAAHCVETGVKITVVAGEHNIEETEHTEQKRNVIRIIPHHNYNAAINKYNHDIALLELDEPLVLNSYVTPICIADKEYTNIFLKFGSGYVSGWGRVFHKGYSALVLQYLRVPLVDRATCLESTKFRIYDNMFCAGFHEGGRDSCQGDSGGPHVTEVEGTSFLTGIISWGEECAMKGKYGIYTKVSEYVNWIKNKTKLT",
    "assay-value": "5.4 s⁻¹"
  },
  {
    "protein": "FIXa-R318Y/R338E/E410N/T412V (protein) chain 1: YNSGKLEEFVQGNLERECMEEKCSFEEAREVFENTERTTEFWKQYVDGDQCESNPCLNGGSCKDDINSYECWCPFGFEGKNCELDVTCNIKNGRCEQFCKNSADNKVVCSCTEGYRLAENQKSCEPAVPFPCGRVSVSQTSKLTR chain 2: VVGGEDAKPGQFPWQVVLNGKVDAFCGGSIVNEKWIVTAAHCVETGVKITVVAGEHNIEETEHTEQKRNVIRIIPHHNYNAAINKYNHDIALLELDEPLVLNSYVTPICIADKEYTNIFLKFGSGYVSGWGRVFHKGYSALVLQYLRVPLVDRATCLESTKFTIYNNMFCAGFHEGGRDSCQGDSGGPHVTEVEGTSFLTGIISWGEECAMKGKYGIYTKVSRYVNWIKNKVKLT",
    "assay-value": "5.2 s⁻¹"
  }
]
